assay: stimulators of nuclear beta-catenin in C2C12, primary screen, imaging, WNT3A-conditioned medium, mouse C2C12, NPC library (AID 1117326); conditions: at 10 µM, stronger effect = higher value; note: reference of the scale not given here
readoutLabel: nuclear beta-catenin stimulation (%)
Hi! Could you send only the number? It should be in %, unit omitted.

Example compounds with recorded nuclear beta-catenin stimulation:
Note down nuclear beta-catenin stimulation recorded for CC(Cc1ccc(O)cc1)NCC(O)c1cc(O)cc(O)c1 (stereo not drawn)
-1.3

Note down nuclear beta-catenin stimulation recorded for CN1C(=O)CN=C(c2ccccc2)c2cc([N+](=O)[O-])ccc21
0.5

Note down nuclear beta-catenin stimulation recorded for Clc1ccc(COC(Cn2ccnc2)c2ccc(Cl)cc2Cl)cc1 (stereo not drawn)
3.6

Note down nuclear beta-catenin stimulation recorded for CN(C)C(=O)Oc1cc(OC(=O)N(C)C)cc(C(O)CNC(C)(C)C)c1 (stereo not drawn)
0.1

Note down nuclear beta-catenin stimulation recorded for C[C@H]1C(=O)O[C@@H]2CCN3CC=C(COC(=O)[C@](C)(O)[C@]1(C)O)[C@H]23
-0.7

Consider now this further compound.
Note down nuclear beta-catenin stimulation recorded for CC(CCc1ccccc1)NC(C)C(O)c1ccc(O)cc1 (stereo not drawn)
-0.2
